As shown below, each of these molecules has a reported MIC90 value.
# System: Sporothrix albicans
# assayText: Antifungal activity against Sporothrix albicans after 72 hrs by microdilution method
# Type: functional
I only need the number, in µg/mL, no unit after it.

// solved cases for MIC90 follow
| compound | outputUnit | MIC90 |
| --- | --- | --- |
| C[C@@H](c1nc(-c2ccc(C#N)cc2)cs1)[C@](O)(Cn1cncn1)c1ccc(F)cc1F | µg/mL | 32 |
| C[C@@H](c1ncncc1F)[C@](O)(Cn1cncn1)c1ccc(F)cc1F | µg/mL | 32 |
| C[C@@H]1[C@H](O)[C@@H](C)/C=C/C=C/C=C/C=C/C=C/C=C/C=C/[C@H](O[C@@H]2O[C@H](C)[C@@H](O)[C@H](N)[C@@H]2O)C[C@@H]2O[C@](O)(C[C@@H](O)C[C@@H](O)[C@H](O)CC[C@@H](O)C[C@@H](O)CC(=O)O[C@H]1C)C[C@H](O)[C@H]2C(=O)O | µg/mL | 8 |

Q. Retrieve MIC90 measured for CC[C@@H]([C@H](C)O)n1ncn(-c2ccc(N3CCN(c4ccc(OC[C@@H]5CO[C@@](Cn6cncn6)(c6ccc(F)cc6F)C5)cc4)CC3)cc2)c1=O and print it.
A. 2

Q. Specify MIC90 for Nc1nc(=O)[nH]cc1F and stop.
A. 128
